protocol-description: HepG2 cytotoxicity, primary screen, cytotoxicity control for P. falciparum antimalarial project, cell-based, ATP luminescence (AID 2303)
protocol-conditions: HepG2 viability, 24-48 h, at 10 µM
Activity calls are given as the source filed them.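 How the source made its calls: active means inhibition above 50%; inactive means the rest.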
Outcome codes: active, inactive

- compound: "OC(CNc1ccnc(Nc2cccc(Cl)c2)n1)c1cccc(C(F)(F)F)c1 (stereo not drawn)"
  class: "inactive"
- compound: "CN1CCC(NCc2cccc(-c3cccc(-c4nc5ccc(C(F)(F)F)cc5[nH]4)c3)c2)CC1"
  class: "inactive"
- compound: "COc1ccc(CCn2c(=N)c(C(=O)NCc3cccnc3)cc3c(=O)n4cccc(C)c4nc32)cc1"
  class: "inactive"
- compound: "COc1ccc(C(C(=O)NC2CCN(C[C@H](O)c3ccnc4ccc(OC)cc34)CC2)N2CCN(Cc3ccccc3)CC2)cc1 (stereo partly drawn)"
  class: "inactive"
- compound: "N#CC(CC(=O)c1ccc(Cl)cc1)c1cccc(F)c1 (stereo not drawn)"
  class: "inactive"
- compound: "CC(CN(C)C)C(=O)Nc1ccc(-c2cccc(-c3nc4ccccc4[nH]3)c2)cc1 (stereo not drawn)"
  class: "active"
- compound: "O=C(NC1CC1)c1cnc(N2CCCC(c3ccccc3)C2)c(Cl)c1 (stereo not drawn)"
  class: "inactive"
- compound: "O=C(Nc1ccncc1)c1cn(-c2ccccc2)nc1-c1cccs1"
  class: "inactive"
- compound: "COc1ccc(-c2cc(C(=O)N[C@@H](CC3CCCCC3)C(=O)NCCN3CCCCC3)ccc2O)cc1"
  class: "inactive"
- compound: "FC(F)(F)c1cccc(C=NNc2nc3ccccc3[nH]2)c1"
  class: "inactive"
- compound: "Cc1ccc2nc(C)cc(NC(=O)Nc3ccc(N(C)C)cc3)c2c1"
  class: "inactive"
- compound: "O=C(Nc1cccc(CN2CCCN(Cc3ccc(O)cc3)CC2)c1)c1cccc(Cl)c1"
  class: "inactive"
- compound: "Cc1cccc2[nH]c(-c3cccc(-c4cccc(CNCCCN5CCCC5=O)c4)c3)nc12"
  class: "inactive"
- compound: "Cc1nc2ccccc2c(=O)n1NCc1ccc(Cl)c(Cl)c1"
  class: "inactive"
- compound: "O=C(Nc1cc(Cl)ccc1O)c1ccc(Oc2ccc(C(=O)Nc3cc(Cl)ccc3O)cc2)cc1"
  class: "inactive"
- compound: "CC(C)(C)c1ccc(NC(=O)c2cccc(CN3CCCN(Cc4ccc(F)cc4)CC3)c2)cc1"
  class: "inactive"
- compound: "Cc1cc(N[C@@H](Cc2ccccc2)C(=O)NCCc2ccccc2)nc(NCCc2ccc(F)cc2)n1"
  class: "inactive"
- compound: "COc1ccc(NC(=O)c2cc(-c3ccc(NC(C)=O)cc3)cnc2N)cc1"
  class: "inactive"
- compound: "O=C(/C=C/c1ccc(Cl)c(Cl)c1)NC1CCN(CCCNC(=O)c2cccc(Cl)c2)CC1"
  class: "inactive"
- compound: "COc1ccc(Cl)cc1N1CCN(CCCNC(=O)c2ccc(-c3nc4cc5ccccc5cc4[nH]3)c(F)c2)CC1"
  class: "inactive"
- compound: "CCCCN(Cc1cc(Cl)c(OC)c(OC)c1)c1ccc(C(O)(C(F)(F)F)C(F)(F)F)cc1"
  class: "inactive"
- compound: "COc1ccc(Cn2c(SCc3ccc(C)cc3)nc3cc(OC)c(OC)cc3c2=N)cc1Cl"
  class: "active"
- compound: "CCc1cc(I)c2c(c1)C(NCCCNc1cc(=O)c3ccccc3[nH]1)CCN2 (stereo not drawn)"
  class: "inactive"
- compound: "O=C(NCC1CCN(Cc2ccc(F)cc2)C1)c1cc(-c2cccc(C(F)(F)F)c2)cs1 (stereo not drawn)"
  class: "inactive"
- compound: "N#CC(c1ccc(Br)cc1)c1ccc2c(C(F)(F)F)cc(C(F)(F)F)nc2n1 (stereo not drawn)"
  class: "active"
- compound: "Cc1cc(CNCCCCCCCNCc2cccc([N+](=O)[O-])c2)ccc1O"
  class: "inactive"
- compound: "O=C(NC1CCN(Cc2ccccc2)CC1)c1ccc(-c2nc3cc(F)c(F)cc3[nH]2)s1"
  class: "inactive"
- compound: "COc1ccc(NC(=O)C2c3ccccc3C(=O)N(CC(C)C)C2c2cccs2)cc1OC (stereo not drawn)"
  class: "inactive"
- compound: "Cn1ccnc1S(=O)(=O)CCNCc1ccc(-c2ccc3ncnc(Nc4ccc(OCc5cccc(F)c5)c(Cl)c4)c3c2)o1"
  class: "inactive"
- compound: "O=C(NC1CC1)c1ccc(Cn2c(SCc3cccc(Cl)c3)nc3ccccc3c2=O)cc1"
  class: "inactive"
- compound: "CC(C)Oc1ccc2c(c1)OC(c1ccccc1)(C(F)(F)F)NC2=O (stereo not drawn)"
  class: "inactive"
- compound: "Fc1ccc2ncc(Cl)c(CCN3CCC(NCc4cc5c(cn4)OCCO5)CC3)c2c1"
  class: "inactive"
- compound: "CCCC(C)NC(=O)C(N)Cc1cccc(I)c1 (stereo not drawn)"
  class: "inactive"
- compound: "O=C(C=Cc1cn(-c2ccccc2)nc1-c1cccs1)N1CCN(c2ccncc2)CC1"
  class: "inactive"
- compound: "COc1ccc2nccc([C@@H](O)CN3CCC(NCc4ccc5c(c4)nnn5C(C)C)CC3)c2c1"
  class: "inactive"
- compound: "COc1ccc(NC(=O)C2CCN(CCCCCNC(=O)/C=C/c3ccc(Cl)c(Cl)c3)CC2)cc1"
  class: "inactive"
- compound: "CC(=O)N/N=C/[C@H](CCc1ccccc1)NC(=O)[C@H](CC(C)C)NC(=O)c1ccc(OCCN2CCOCC2)cc1"
  class: "inactive"
- compound: "Cc1sc2ccc(Cl)cc2c1S(=O)(=O)Nc1ccc2nccc(N3C[C@@H](C)N[C@@H](C)C3)c2c1"
  class: "inactive"

Value source: PubChem BioAssay
